Measured values drawn from patent US20020103111A1 for this set.

system: human MAdCAM-1 (huMAdCAM-1-Ig chimera); RPMI 8866 cells expressing α4β7 (Homo sapiens, UniProt P13612+P26010)
Construct: RPMI 8866 cells, a B cell lymphoma expressing α4β7; endogenous in cells; host or cells: RPMI 8866 cells (endogenous α4β7)
measurement_description: huMAdCAM-1-Ig/RPMI 8866 Adhesion Assay
Format: cell-based
experimental_parameters: Table 6, R1-Leu-Asp-Thr, read-out: hMAdCAM IC50
experimental_readout: IC50 (µM)
Response body: numeric value in µM, unit text excluded.

Known results for compounds:
# mol, IC50 / µM
data = [
    ("CC(C)C[C@H](NC(=O)c1cccc(C(F)(F)F)c1)C(=O)N[C@@H](CC(=O)O)C(=O)N[C@H](C(N)=O)[C@@H](C)O", 2.8),
    ("CC(C)C[C@H](NC(=O)c1ccc(C(C)(C)C)cc1)C(=O)N[C@@H](CC(=O)O)C(=O)N[C@H](C(N)=O)[C@@H](C)O", 1.1),
    ("Cc1nc(Cl)ccc1C(=O)N[C@@H](CC(C)C)C(=O)N[C@@H](CC(=O)O)C(=O)N[C@H](C(N)=O)[C@@H](C)O", 1.1),
    ("CC(C)C[C@H](NC(=O)c1coc2ccccc2c1=O)C(=O)N[C@@H](CC(=O)O)C(=O)N[C@H](C(N)=O)[C@@H](C)O", 0.73),
]

Query string: Input "CC(C)C[C@H](NC(=O)c1sccc1Br)C(=O)N[C@@H](CC(=O)O)C(=O)N[C@H](C(N)=O)[C@@H](C)O" , output reported IC50.
Result string: 2.6

* * *

system: murine MAdCAM-1 (MAdCAM-1/mCk fusion protein); α4β7-bearing HUT 78 cells (Homo sapiens, UniProt P13612+P26010)
Construct: host or cells: HUT 78 cells (endogenous α4β7); The MAdCAM-1/mCk partner was made in house in baculovirus-infected Sf9 insect cells, used as neat supernatant and captured by rat anti-mCk antibody
Sequence (P13612 34-1032): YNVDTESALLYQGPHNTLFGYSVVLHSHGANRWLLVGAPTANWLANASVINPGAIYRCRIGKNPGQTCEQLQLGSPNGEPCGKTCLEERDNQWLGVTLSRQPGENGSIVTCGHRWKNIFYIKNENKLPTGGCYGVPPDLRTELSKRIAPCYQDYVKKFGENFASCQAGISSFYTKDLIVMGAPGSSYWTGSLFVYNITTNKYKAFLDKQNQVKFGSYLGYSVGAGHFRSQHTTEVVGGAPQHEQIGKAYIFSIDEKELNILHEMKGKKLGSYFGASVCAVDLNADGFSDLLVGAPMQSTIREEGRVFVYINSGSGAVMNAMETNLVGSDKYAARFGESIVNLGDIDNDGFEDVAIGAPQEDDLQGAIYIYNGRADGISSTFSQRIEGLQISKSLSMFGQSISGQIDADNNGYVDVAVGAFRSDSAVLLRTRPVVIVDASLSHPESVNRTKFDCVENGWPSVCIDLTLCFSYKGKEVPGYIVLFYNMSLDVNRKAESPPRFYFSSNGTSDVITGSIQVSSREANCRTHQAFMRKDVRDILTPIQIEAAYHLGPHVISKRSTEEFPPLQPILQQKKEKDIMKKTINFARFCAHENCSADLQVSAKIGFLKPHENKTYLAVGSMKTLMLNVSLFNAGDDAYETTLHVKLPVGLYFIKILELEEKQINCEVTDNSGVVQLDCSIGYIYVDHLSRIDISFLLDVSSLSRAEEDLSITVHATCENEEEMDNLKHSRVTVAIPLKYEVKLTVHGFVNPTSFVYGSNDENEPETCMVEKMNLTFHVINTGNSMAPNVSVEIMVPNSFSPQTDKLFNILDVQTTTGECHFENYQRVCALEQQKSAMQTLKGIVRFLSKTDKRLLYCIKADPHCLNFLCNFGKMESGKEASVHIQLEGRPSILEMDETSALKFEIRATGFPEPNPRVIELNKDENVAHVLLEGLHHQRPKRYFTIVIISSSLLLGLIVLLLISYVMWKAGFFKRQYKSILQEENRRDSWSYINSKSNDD
Sequence (P26010 20-798): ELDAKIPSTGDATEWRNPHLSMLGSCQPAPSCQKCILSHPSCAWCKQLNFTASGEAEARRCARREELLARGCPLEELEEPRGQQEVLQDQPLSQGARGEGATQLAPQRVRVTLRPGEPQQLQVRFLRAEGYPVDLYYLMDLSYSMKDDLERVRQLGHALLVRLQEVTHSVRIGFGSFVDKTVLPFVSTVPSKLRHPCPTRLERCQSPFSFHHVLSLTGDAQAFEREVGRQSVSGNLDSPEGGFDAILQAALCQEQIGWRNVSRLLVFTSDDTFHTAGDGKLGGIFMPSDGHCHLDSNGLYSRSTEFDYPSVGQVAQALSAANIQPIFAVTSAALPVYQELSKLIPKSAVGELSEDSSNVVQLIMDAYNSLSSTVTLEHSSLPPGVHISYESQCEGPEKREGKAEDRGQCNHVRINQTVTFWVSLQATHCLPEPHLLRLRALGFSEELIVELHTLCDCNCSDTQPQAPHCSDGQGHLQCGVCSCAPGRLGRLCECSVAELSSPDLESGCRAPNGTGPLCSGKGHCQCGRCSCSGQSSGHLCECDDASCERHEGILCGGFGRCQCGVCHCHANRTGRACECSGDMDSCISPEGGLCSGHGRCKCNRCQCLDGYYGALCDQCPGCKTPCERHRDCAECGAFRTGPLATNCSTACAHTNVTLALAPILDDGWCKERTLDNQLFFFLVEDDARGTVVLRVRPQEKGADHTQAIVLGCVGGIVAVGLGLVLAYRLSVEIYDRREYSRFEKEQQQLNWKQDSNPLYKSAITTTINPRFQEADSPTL
measurement_description: Adhesion of HUT 78 cells to MAdCAM-1/mCk fusion protein bound via capture antibody
Assay type: cell-based
experimental_parameters: HuT78, 500 μM compound; HUT 78 cells, Mn2+ activated; read-out: % Adhesion Inhibition 500 μM
Square brackets hold non-standard residues; d marks the D form. Peptide text beside a SMILES is read from it. NMeL = CN[C@@H](CC(C)C)C(=O)O
experimental_readout: inhibition at 500 µM (%)
Response body: numeric value in %, unit text excluded.

# compound, u, inhibition at 500 µM
records = [
    ("CC(=O)NCC(=O)N[C@@H](CC(C)C)C(=O)N[C@@H](CC(=O)O)C(=O)N[C@H](C(=O)N[C@@H](CO)C(=O)N[C@@H](CC(C)C)C(N)=O)[C@@H](C)O [Example 9, Ac-Gly-Leu-Asp-Thr-Ser-Leu] (Ac-GLDTSL-NH2)", "%", 58),
    ("CC(=O)N[C@@H](CCCNC(=N)N)C(=O)NCC(=O)N[C@@H](CC(C)C)C(=O)N[C@@H](CC(=O)O)C(=O)N[C@H](C(=O)N[C@@H](CO)C(=O)N[C@@H](CC(C)C)C(N)=O)[C@@H](C)O [Example 8, Ac-Arg-Gly-Leu-Asp-Thr-Ser-Leu] (Ac-RGLDTSL-NH2)", "%", 35),
    ("CCCCCCCc1ccc(C(=O)N[C@@H](CC(C)C)C(=O)N[C@@H](CC(=O)O)C(=O)N[C@H](C(=O)N[C@@H](CO)C(=O)N[C@@H](CC(C)C)C(N)=O)[C@@H](C)O)cc1 [Example 22, Hbz-Leu-Asp-Thr-Ser-Leu]", "%", 51),
    ("CC(C)C[C@H](NC(=O)[C@H](CO)NC(=O)[C@@H](NC(=O)[C@H](CC(=O)O)NC(=O)[C@H](CC(C)C)NC(=O)C1C(C)(C)C1(C)C)[C@@H](C)O)C(N)=O [Example 25, Tpc-Leu-Asp-Thr-Ser-Leu]", "%", 39),
    ("CC(C)C[C@H](NC(=O)[C@H](CO)NC(=O)[C@@H](NC(=O)[C@H](CC(=O)O)NC(=O)[C@H](CC(C)C)NC(=O)Cc1cccc2ccccc12)[C@@H](C)O)C(N)=O [Example 21, Npa-Leu-Asp-Thr-Ser-Leu]", "%", 39),
]

Query string: Input CC(=O)N[C@@H](CCCNC(=N)N)C(=O)NCC(=O)N[C@@H](CC(C)C)C(=O)N[C@@H](CC(=O)O)C(=O)N[C@H](C(=O)N[C@@H](CO)C(N)=O)[C@@H](C)O [Example 12, Ac-Arg-Gly-Leu-Asp-Thr-Ser] (Ac-RGLDTS-NH2) , output reported inhibition at 500 µM.
Result string: 31

Query string: Input CC(C)Cc1ccc(C(C)C(=O)N[C@@H](CC(C)C)C(=O)N[C@@H](CC(=O)O)C(=O)N[C@H](C(=O)N[C@@H](CO)C(=O)N[C@@H](CC(C)C)C(N)=O)[C@@H](C)O)cc1 (stereo partly drawn) [Example 19, Impa-Leu-Asp-Thr-Ser-Leu] , output reported inhibition at 500 µM.
Result string: 44

Query string: Input CC(=O)N(C)[C@@H](CC(C)C)C(=O)N[C@@H](CC(C)C)C(=O)N[C@@H](CC(=O)O)C(=O)N[C@H](C(=O)N[C@@H](CO)C(=O)N[C@@H](CC(C)C)C(N)=O)[C@@H](C)O [Example 17, Ac-MeLeu-Leu-Asp-Thr-Ser-Leu] (Ac-[NMeL]LDTSL-NH2) , output reported inhibition at 500 µM.
Result string: 28

Query string: Input CC(C)C[C@H](NC(=O)[C@H](CO)NC(=O)[C@@H](NC(=O)[C@H](CC(=O)O)NC(=O)[C@H](CC(C)C)NC(=O)CCCCCc1ccccc1)[C@@H](C)O)C(N)=O [Example 18, Phx-Leu-Asp-Thr-Ser-Leu] , output reported inhibition at 500 µM.
Result string: 32

Query string: Input CC(C)C[C@H](NC(=O)[C@H](CO)NC(=O)[C@@H](NC(=O)[C@H](CC(=O)O)NC(=O)[C@H](CC(C)C)NC(=O)Cc1ccc(-c2ccccc2)cc1)[C@@H](C)O)C(N)=O [Example 20, Bipa-Leu-Asp-Thr-Ser-Leu] , output reported inhibition at 500 µM.
Result string: 54
